This collection of values is drawn from patent US7067262B2.

- targetOfAssay: human α2δ2 (hα2δ2) calcium channel subunit (Homo sapiens, UniProt Q9NY47)
- Construct: covered the whole open reading frame of hα2δ2 cDNA; expressed in transfected cells
- Sequence (Q9NY47 19-1145 isoform Q9NY47-3 limits assumed): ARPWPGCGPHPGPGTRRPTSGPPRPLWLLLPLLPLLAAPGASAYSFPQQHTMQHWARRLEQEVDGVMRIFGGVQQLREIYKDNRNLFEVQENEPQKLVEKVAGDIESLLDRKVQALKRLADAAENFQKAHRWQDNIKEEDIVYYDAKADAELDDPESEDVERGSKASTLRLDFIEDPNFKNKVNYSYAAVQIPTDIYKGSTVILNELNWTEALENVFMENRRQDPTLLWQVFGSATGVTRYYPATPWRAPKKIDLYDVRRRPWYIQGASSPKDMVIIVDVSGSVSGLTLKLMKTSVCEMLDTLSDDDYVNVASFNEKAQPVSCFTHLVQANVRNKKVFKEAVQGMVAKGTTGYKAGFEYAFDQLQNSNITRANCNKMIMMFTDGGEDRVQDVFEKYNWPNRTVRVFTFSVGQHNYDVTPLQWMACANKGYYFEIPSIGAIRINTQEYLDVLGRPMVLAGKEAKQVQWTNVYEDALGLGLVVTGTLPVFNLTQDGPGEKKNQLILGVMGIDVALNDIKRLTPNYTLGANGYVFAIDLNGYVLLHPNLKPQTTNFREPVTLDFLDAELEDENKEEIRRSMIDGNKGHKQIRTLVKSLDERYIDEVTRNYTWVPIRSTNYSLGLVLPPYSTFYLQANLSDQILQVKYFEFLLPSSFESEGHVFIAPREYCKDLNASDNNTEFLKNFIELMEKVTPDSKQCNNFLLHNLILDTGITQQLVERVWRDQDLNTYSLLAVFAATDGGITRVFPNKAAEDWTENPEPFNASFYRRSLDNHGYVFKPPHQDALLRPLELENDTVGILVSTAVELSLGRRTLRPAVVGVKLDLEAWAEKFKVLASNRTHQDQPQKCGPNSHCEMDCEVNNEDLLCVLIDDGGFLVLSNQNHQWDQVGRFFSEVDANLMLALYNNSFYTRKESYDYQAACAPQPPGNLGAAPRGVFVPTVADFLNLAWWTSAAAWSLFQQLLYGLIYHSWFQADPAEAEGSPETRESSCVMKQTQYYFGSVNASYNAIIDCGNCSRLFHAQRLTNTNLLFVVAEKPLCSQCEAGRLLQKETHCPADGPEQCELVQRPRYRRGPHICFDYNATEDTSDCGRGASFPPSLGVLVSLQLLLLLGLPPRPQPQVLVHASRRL
- Sequence (Q9NY47 1002-1150 partner limits assumed): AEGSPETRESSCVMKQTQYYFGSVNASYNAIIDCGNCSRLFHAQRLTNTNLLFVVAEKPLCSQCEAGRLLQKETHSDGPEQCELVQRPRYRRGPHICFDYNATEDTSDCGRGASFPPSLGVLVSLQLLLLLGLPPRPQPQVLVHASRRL
- method: [3H]gabapentin radioligand binding to membranes from HEK293 stable cell line GKS07
- conditionDetails: read-out: IC50 Values for Inhibition of [3H]Gabapentin Binding, GKS07 (hα2δ2); membranes from HEK293 cell line GKS07; 20 nM [3H]gabapentin
metricName: pIC50
Give bare numbers, as −log10 of the molar value.

Request: Kindly indicate its recorded pIC50. Item: NC1(C(=O)O)CC2CCC1C2 (stereo not shown)
Response: 6.11

* * *

- targetOfAssay: porcine α2δ1 (pα2δ1) calcium channel subunit (Sus scrofa)
- Construct: expressed in transfected cells
- Sequence (A0A287BIN3 25-1109): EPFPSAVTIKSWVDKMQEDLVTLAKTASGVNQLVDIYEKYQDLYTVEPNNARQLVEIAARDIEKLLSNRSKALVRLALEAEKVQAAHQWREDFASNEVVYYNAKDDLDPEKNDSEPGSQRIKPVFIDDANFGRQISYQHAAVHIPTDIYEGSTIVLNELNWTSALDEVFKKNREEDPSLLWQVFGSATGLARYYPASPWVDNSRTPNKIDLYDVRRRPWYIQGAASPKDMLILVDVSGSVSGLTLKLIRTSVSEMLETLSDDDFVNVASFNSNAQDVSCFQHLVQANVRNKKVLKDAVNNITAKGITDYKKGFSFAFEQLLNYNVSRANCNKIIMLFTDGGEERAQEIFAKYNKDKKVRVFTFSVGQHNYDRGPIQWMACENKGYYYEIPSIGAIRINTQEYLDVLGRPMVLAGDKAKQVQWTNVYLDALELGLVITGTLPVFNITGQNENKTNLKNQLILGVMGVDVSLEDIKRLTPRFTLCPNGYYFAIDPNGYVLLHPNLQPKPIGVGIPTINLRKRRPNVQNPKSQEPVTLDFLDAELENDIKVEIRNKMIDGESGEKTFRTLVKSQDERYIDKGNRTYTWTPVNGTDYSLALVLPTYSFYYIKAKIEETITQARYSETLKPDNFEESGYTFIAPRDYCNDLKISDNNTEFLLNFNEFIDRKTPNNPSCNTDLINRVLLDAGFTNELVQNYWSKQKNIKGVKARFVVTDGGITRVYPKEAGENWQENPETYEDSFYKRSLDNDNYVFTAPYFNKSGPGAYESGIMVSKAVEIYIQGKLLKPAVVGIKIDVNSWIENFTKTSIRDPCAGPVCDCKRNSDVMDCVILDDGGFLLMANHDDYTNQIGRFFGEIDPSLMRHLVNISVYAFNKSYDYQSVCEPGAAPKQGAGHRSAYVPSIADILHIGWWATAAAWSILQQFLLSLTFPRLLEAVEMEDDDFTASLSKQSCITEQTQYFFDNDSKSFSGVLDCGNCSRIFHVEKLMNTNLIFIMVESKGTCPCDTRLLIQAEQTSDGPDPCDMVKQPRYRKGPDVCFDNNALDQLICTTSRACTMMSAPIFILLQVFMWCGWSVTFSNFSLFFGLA
- method: [3H]gabapentin radioligand binding to membranes from HEK293 stable cell line GKS02
Can you tell me pIC50 for the items I'm about to list?
Give bare numbers, as −log10 of the molar value.

molecule: CC(C)C[C@@H](N)C(=O)O
metricName: pIC50
reported: 3.70

molecule: CC(C)C[C@H](CN)CC(=O)O [Pregabalin, (S+)-3-isobutyl GABA]
metricName: pIC50
reported: 6.83

molecule: N[C@@H](Cc1ccccc1)C(=O)O
metricName: pIC50
reported: 6.08

Lab note: next molecule to report on.
Request: Provide measured pIC50 on porcine α2δ1 (pα2δ1) calcium channel subunit (Sus scrofa) for `CC(C)C[C@H](N)C(=O)O` please.
Response: 6.93
